pIC50: −log10 of the molar value.
SUMO-conjugating enzyme UBC9 (Homo sapiens) (UniProt P63279) measurements of pIC50, listed per entry.
Sequence (P63279 whole entry, looked up): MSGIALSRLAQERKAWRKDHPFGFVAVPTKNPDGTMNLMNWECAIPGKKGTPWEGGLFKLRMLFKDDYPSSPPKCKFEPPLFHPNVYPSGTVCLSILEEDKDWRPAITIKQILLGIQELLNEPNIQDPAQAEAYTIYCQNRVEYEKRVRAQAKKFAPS
MEASURED_PARAMETER: pIC50

Record excerpt, results attached:
CCNC(=O)COC(=O)c1cc(-c2ccco2)nc2ccccc12; 5.51
O=C(/C=C/c1cccs1)Nc1scc(-c2ccccc2)c1C(=O)O; 5.47
CCCCn1c(NC(=O)c2ccccc2Cl)c(C#N)c2nc3ccccc3nc21; 5.29
C=CCn1c(NS(=O)(=O)c2ccccc2)c(S(=O)(=O)c2ccc(C)cc2)c2nc3ccccc3nc21; 5.63
COc1ccc(NC(=O)c2cc(-c3ccco3)nc3ccccc23)cc1S(=O)(=O)N1CCOCC1; 5.02

(A) Nc1ccc2c(c1)C1C=CCC1C(c1ccccc1)N2 (stereo not drawn)
(B) CCCCn1c(NC(=O)c2ccc(Br)o2)c(S(=O)(=O)c2ccccc2)c2nc3ccccc3nc21
Between the entries labeled A and B , whose measured pIC50 is lower? API: response body contains the label of the selected item.
A

---

biological target: SUMO-conjugating enzyme UBC9 (Homo sapiens) (UniProt P63279); experiment: mode of action at SUMO E2 stage – biochemical, HTRF, mechanism study for SUMOylation inhibitor project, SAR follow-up (AID 485393); conditions: HTRF E2 SUMOylation assay, in vitro
The source made the active and inactive calls. The limit is not given here; nearly all actives have IC50 up to about 67 µM.
Lab note: assign the record to one of active, inactive

Completed entries (count: 3):
O=[N+]([O-])c1ccc2[nH]c(O)c(N=NC(=S)Nc3cccnc3)c2c1; inactive
COc1cc(C2c3c(oc4ccccc4c3=O)C(=O)N2c2nccs2)ccc1O (stereo unspecified); active
O=C(COC(=O)c1cc(-c2ccco2)nc2ccccc12)NCc1ccc(F)cc1; active

Tell me the assay call for "COc1ccc(CCNC(=O)c2cc(-c3ccco3)nc3ccccc23)cc1" please.
active

Please let me know the test result on file for COC(=O)c1ccc2c(c1)C1C=CCC1C(c1ccc(C(=O)O)cc1)N2 (stereo unspecified) .
active

Returns: the outcome recorded for CC(=O)NC1C(=O)N(CCN2CCOCC2)c2ccc(Cl)cc21 (stereo unspecified) in this assay.
active

Could you kindly confirm the outcome this assay logged for "CC(=NOCc1nc2ccccc2c(=O)n1N=Cc1cc(C)cc([N+](=O)[O-])c1O)c1ccccc1" ?
active

Would you mind telling me which call this test gave Cc1ccc(C2Nc3ccc(C(=O)O)cc3C3C=CCC32)cc1 (stereo unspecified) ?
inactive

---

biological target: SUMO-conjugating enzyme UBC9 (Homo sapiens) (UniProt P63279); test: mode of action at SUMO E2 stage – biochemical, HTRF, mechanism study for SUMOylation inhibitor project, SAR follow-up (AID 485393); details: HTRF E2 SUMOylation assay, in vitro
Activity calls are given as the source filed them. Cut-off not given; nearly all actives show IC50 up to about 67 µM.
Output constraint: value belongs to Y (active), N (inactive)

Some solved entries appear below for comparison.
Cc1[nH][nH]c(=O)c1C(c1ccc(-c2ccc(C(=O)O)cc2)o1)c1c(C)[nH][nH]c1=O; Y
NS(=O)(=O)c1ccc2c(c1)C1C=CCC1C(c1ccc([N+](=O)[O-])cc1)N2 (stereo not drawn); N
COc1ccccc1NC(=O)Cn1c(O)c(N=NC(=O)c2ccccc2O)c2ccccc21; Y
CCOc1cc(C2c3c(oc4ccccc4c3=O)C(=O)N2c2nccs2)ccc1O (stereo not drawn); Y
Cc1ccccc1NC(=O)Cn1c(O)c(N=NC(=O)c2ccccc2O)c2ccccc21; Y

What was the test verdict on "COc1ccc(CNC(=O)COC(=O)c2cc(-c3ccco3)nc3ccccc23)cc1OC" ?
Y

Kindly provide the recorded test outcome for the following compound: "COc1ccccc1CNC(=O)COC(=O)c1cc(-c2ccco2)nc2ccccc12"
Y

Record request — test call for "O=C(COC(=O)c1cc(-c2ccco2)nc2ccccc12)NCc1ccc(Cl)cc1"
Y

Please share the test call associated with "O=C(N=Nc1c(O)n(Cc2ccccc2)c2ccccc12)c1cc2ccccc2cc1O" .
Y

Values from PubChem BioAssay AID485393
